Counter-ions that a name gives are not always drawn.
Measured melting point by item

Some solved entries appear below for comparison.
In [3]: df
Out[3]:
                                   molecule         result
0  O=C(O)CCN1CCN(S(=O)(=O)c2cc([N+](=O)[O-])ccc2Sc2cc(Cl)cc(Cl)c2)CC1  209 to 211 °C
1  CCCC(C)N1CCN(S(=O)(=O)c2cc([N+](=O)[O-])ccc2Oc2cc(C)cc(C)c2)CC1 (stereo not shown)    93 to 95 °C
2  CN(C)C(=O)c1ccc(Oc2cc(Cl)cc(Cl)c2)c(S(=O)(=O)N2CCNCC2)c1 (as salt: hydrochloride)  197 to 199 °C

Now turn to the next molecule.
What does the data say about its melting point? Entry: "O=[N+]([O-])c1ccc(Oc2cc(Cl)cc(Cl)c2)c(S(=O)(=O)N2CCN(CCC(F)(F)F)CC2)c1"
166 to 167 °C

====

Tag: rule met if measured melting point is not below 200 °C, rule not met if it is.

>>> print(df.to_string())
                                   molecule   label_value
0  CN(C)c1ccc(NS(=O)(=O)c2cc([N+](=O)[O-])ccc2Oc2cc(Cl)cc(Cl)c2)cc1      rule met
1  Cc1cc(C)cc(Oc2ccc([N+](=O)[O-])cc2S(=O)(=O)N2CC(C)NCC2C)c1.Cl (centres unmarked)  rule not met
2  COc1ccc(S(=O)(=O)N2CCNCC2)c(Oc2cc(C)cc(C)c2)c1.Cl  rule not met
3  NCCNS(=O)(=O)c1cc([N+](=O)[O-])ccc1Sc1cc(Cl)cc(Cl)c1  rule not met

Test whether the molecule "Cc1ccc(C)c(Oc2ccc([N+](=O)[O-])cc2S(=O)(=O)N2CCNCC2)c1C.Cl" records melting point of 200 °C or higher.
rule met

Same question, "O=[N+]([O-])c1ccc(Sc2cc(Cl)cc(Cl)c2)c(S(=O)(=O)N2CCC(N3CCCC3)CC2)c1" this time
rule met

Here is the next molecule: "Cl.N[C@@H]1CCN(S(=O)(=O)c2cc([N+](=O)[O-])ccc2Sc2cc(Cl)cc(Cl)c2)C1"
rule met

Field entry: "Cl.Cl.O=[N+]([O-])c1ccc(Oc2cncc(Cl)c2)c(S(=O)(=O)N2CCNCC2)c1"
rule met

====

Where a name gives a salt, the structure may show the parent alone.
Each item that follows carries a reported melting point.

Example results:
>>> df
                                   molecule         result
0  Cc1ccc(Cl)c(Oc2ccc([N+](=O)[O-])cc2S(=O)(=O)N2CCNCC2)c1  166 to 167 °C
1  O=[N+]([O-])c1ccc(Oc2cc(Cl)ccc2Cl)c(S(=O)(=O)N2CCNCC2)c1  179 to 180 °C

// lookup melting point for "Cc1ccc(Oc2ccc([N+](=O)[O-])cc2S(=O)(=O)N2CCNCC2)cc1.Cl"
188 to 192 °C

// next record "Cc1cc(C)cc(Oc2ccc([N+](=O)[O-])cc2S(=O)(=O)N2CCN(C(=O)OC(C)(C)C)CC2)c1"
232 to 233 °C

Then what about the molecule "Cc1cc(C)cc(Oc2ccc(C(=O)N3CCNCC3)cc2S(=O)(=O)N2CCNCC2)c1.Cl.Cl" ?
288 to 290 °C

Also N#Cc1ccc(Oc2cc(Cl)cc(Cl)c2)c(S(=O)(=O)N2CCCNCC2)c1 (as salt: hydrochloride) ?
278 to 280 °C

Then what about the molecule "Cc1cc(C)cc(Oc2ccc([N+](=O)[O-])cc2S(=O)(=O)N2CCN(Cc3ccccc3)CC2)c1" ?
123 to 124 °C

Values compiled from patent US8242118B2.
